Assay: Toxicity liver stage against HepG2, at 10uM
Assay type: cell-based
Parameters: test concentration 10 uM, cell line HepG2-A16-CD81EGFP
Cond: human, HepG2-A16-CD81EGFP cells; read-out: INHIBITION
Attribute Measured: cytotoxicity at 10 µM (%)
Respond numerically; units are % and should not be typed.

CC(=O)NCc1nc(CCOc2ccc(Cl)cc2)no1: -145

Answer with the recorded cytotoxicity at 10 µM for the compound listed here: CCc1nc(C)c(C(=O)N(C)Cc2cnn(-c3cccc(OC)c3)c2)s1 11.7

Answer with the recorded cytotoxicity at 10 µM for the compound listed here: Fc1cccc(-c2nccnc2C2CCCNC2)c1 (stereo unspecified) -16.5

Answer with the recorded cytotoxicity at 10 µM for the compound listed here: Cc1cc(CN2CCC3(CC2)CC(C(=O)O)N(C(=O)C2CC2)C3)oc1C (stereo unspecified) -7.32

Answer with the recorded cytotoxicity at 10 µM for the compound listed here: CCN1CCN(C2CCN(CCOc3ccc(F)cc3)CC2)C1=O -5.38

Answer with the recorded cytotoxicity at 10 µM for the compound listed here: Cc1nn(C)c(C)c1NC(=O)CN1CCCC1c1noc(C2CC2)n1 (stereo unspecified) -12.1

Answer with the recorded cytotoxicity at 10 µM for the compound listed here: CCn1nc(C)c(NC(=O)CN(C)C(C)c2ccon2)c1C (stereo unspecified) -147

Answer with the recorded cytotoxicity at 10 µM for the compound listed here: COc1ccc(N(CCC(N)=O)C(=O)CSc2ccc(Cl)cc2)cc1 -4.37

Answer with the recorded cytotoxicity at 10 µM for the compound listed here: Cc1cc(C)c2[nH]c(=O)c(CN3CCCC4(C3)CN(C)C(=O)O4)cc2c1 (stereo unspecified) -14.3

Answer with the recorded cytotoxicity at 10 µM for the compound listed here: COCC(=O)N1CCN(Cc2cc(F)cc(Br)c2)CC1 15.8

Answer with the recorded cytotoxicity at 10 µM for the compound listed here: Cc1nn(C)c2c(=O)n(C)c(NCC3CCCO3)nc12 (stereo unspecified) 0.186

----------
Assay: Toxicity liver stage against HepG2, at 10uM
Format: cell-based
Set-up: test concentration 10 uM, cell line HepG2-A16-CD81EGFP
Cond: human, HepG2-A16-CD81EGFP cells; read-out: INHIBITION
Attribute Measured: cytotoxicity at 10 µM
Kindly write the number and append the unit.

Illustrative cases are given below, each with its answer.
NC(=O)C(NCCc1ccc(Cl)s1)c1ccccc1 (stereo unspecified): 6.13%
Cn1ncc2c1C(COCC1CC1)CN(C(=O)c1cscn1)C2 (stereo unspecified): -76%

Answer with the recorded cytotoxicity at 10 µM for the compound listed here: COc1cccc(C(=O)N(C)C(C)c2c(C)n[nH]c2C)c1OC (stereo unspecified) -2.8%

Answer with the recorded cytotoxicity at 10 µM for the compound listed here: Fc1ccccc1OC1CCN(CCn2cc3ccccc3n2)CC1 9.25%

Answer with the recorded cytotoxicity at 10 µM for the compound listed here: O=C(Cc1ccccn1)N1CCC2(CC1)CN(c1ccccn1)CCO2 8.85%

Answer with the recorded cytotoxicity at 10 µM for the compound listed here: Cc1ccccc1-c1noc(CN2CC(n3cccn3)C2)n1 -4.21%

Answer with the recorded cytotoxicity at 10 µM for the compound listed here: COc1cccc(S(=O)(=O)NC(=O)C2CC(c3ccccc3)=NO2)c1 (stereo unspecified) 3.73%

Answer with the recorded cytotoxicity at 10 µM for the compound listed here: CN(C)c1ncc2c(n1)N(C)CCN(CC1CC1)C2=O -1.36%

Answer with the recorded cytotoxicity at 10 µM for the compound listed here: Fc1ccc(CN2CCOCC3(CCN(Cc4nccs4)C3)C2)cc1 (stereo unspecified) 4.23%

Answer with the recorded cytotoxicity at 10 µM for the compound listed here: N#CCCN(Cc1cccnc1)C(=O)c1ccc(OCC2CC2)cc1 -8.17%

Answer with the recorded cytotoxicity at 10 µM for the compound listed here: CCNC(=O)c1cn2cc(-c3ccccc3Cl)n(CC3CC3)c(=O)c2n1 4.63%

----------
Assay: Toxicity liver stage against HepG2, at 10uM
Type: cell-based
Set-up: test concentration 10 uM, cell line HepG2-A16-CD81EGFP
Cond: human, HepG2-A16-CD81EGFP cells; read-out: INHIBITION
Attribute Measured: cytotoxicity at 10 µM

COc1ccc(CN2Cc3nnn(C)c3C(COCCN(C)C)C2)cc1 (stereo unspecified): 5.26%
CC(C)C(Sc1nccn1C1CC1)C(=O)NCc1cccnc1 (stereo unspecified): -5.83%
COCC1c2c(cnn2CC2CC2)CCN1Cc1ccc(OC)cc1 (stereo unspecified): 83.3%
O=C1COC2(CCN(C(=O)[C@H]3CCCO3)CC2)CN1Cc1ccccn1: -0.524%
Cc1nonc1CC(=O)N1CCC2(CCCN(C3CCOCC3)C2=O)C1 (stereo unspecified): -95.3%

Answer with the recorded cytotoxicity at 10 µM for the molecule listed here: Cn1ccnc1CN1CCCC(Cc2ccccn2)C1 (stereo unspecified) 2.75%

Answer with the recorded cytotoxicity at 10 µM for the molecule listed here: COCCO[C@H]1CCN(C(=O)c2ccno2)[C@H]1Cc1cnn(C)c1 -5.45%

Answer with the recorded cytotoxicity at 10 µM for the molecule listed here: CC(C)CN1CCN(C(=O)NCc2cccnc2-n2cccn2)CC1 7.29%

Answer with the recorded cytotoxicity at 10 µM for the molecule listed here: O=C(NCC(F)(F)F)c1nnn(-c2ccccc2)c1C(F)(F)F 4.39%

Answer with the recorded cytotoxicity at 10 µM for the molecule listed here: O=S(=O)(N1CCCC1)N1CC[C@H](c2ccccc2)[C@H]2NCCCC[C@H]21 -25.1%

Answer with the recorded cytotoxicity at 10 µM for the molecule listed here: Cn1ccnc1SCCNC(=O)CC1CCc2ccccc21 (stereo unspecified) -3.05%

Answer with the recorded cytotoxicity at 10 µM for the molecule listed here: CS(=O)(=O)N1C[C@H]2CC[C@@H](C1)N(Cc1ccsc1)C2 44.7%

Answer with the recorded cytotoxicity at 10 µM for the molecule listed here: O=S(=O)(c1ccccc1)N1C2CCC(O)(CC2)C1CN1CCOCC1 (stereo unspecified) -4.65%

----------
Catalogue of molecules with associated cytotoxicity at 10 µM
Assay: Toxicity liver stage against HepG2, at 10uM
Format: cell-based
Set-up: test concentration 10 uM, cell line HepG2-A16-CD81EGFP
Cond: human, HepG2-A16-CD81EGFP cells; read-out: INHIBITION

Cn1ccnc1-c1cccc(NC(=O)NCCCO)c1: -6.77%
CC(=O)N1CCN(C(C)c2nnc(CC(C)C)o2)CC1 (stereo unspecified): 6.88%
Cc1nc(CN(C)C(=O)C2CCC(=O)N(CCN(C)C)C2)cs1 (stereo unspecified): 8.08%
COc1ccc(CN(C)CCS(=O)(=O)c2ccc(Cl)cc2)cc1OC: 2.68%
COCCn1ccnc1C1CCN(C(=O)CSc2nnc(C)s2)CC1: 5.4%

Okay, now this molecule:
Answer with the recorded cytotoxicity at 10 µM for the molecule listed here: N#Cc1cccc(C(=O)N2CCc3ncc(Cn4cccn4)n3CC2)c1 5.84%

----------
Assay: Toxicity liver stage against HepG2, at 10uM
Format: cell-based
Parameters: test concentration 10 uM, cell line HepG2-A16-CD81EGFP
Cond: human, HepG2-A16-CD81EGFP cells; read-out: INHIBITION
Attribute Measured: cytotoxicity at 10 µM (%)
Respond numerically; units are % and should not be typed.

Illustrative cases are given below, each with its answer.
O=C(c1ccnnc1)N1CCN2C[C@H](OCc3ccccn3)C[C@H]2C1: -77.2
COCCOCC1(CNC(=O)c2ccc(OC)cc2)C[C@@H](O)[C@@H](O)C1 (stereo partly specified): 0.0221
CC(=O)N1CC[C@@]2(C(=O)Nc3ccccc3)CCN(S(C)(=O)=O)CC[C@@H]12: 2.96

Answer with the recorded cytotoxicity at 10 µM for the molecule listed here: CC(=O)N(C)CC(=O)Nc1cccc(N2CCN(CC3CC3)CC2)c1 1.75

Answer with the recorded cytotoxicity at 10 µM for the molecule listed here: CCc1noc(C)c1C(=O)N1CCCC1c1c(C)nn(C)c1OC (stereo unspecified) -12.1

----------
Assay: Toxicity liver stage against HepG2, at 10uM
Format: cell-based
Set-up: test concentration 10 uM, cell line HepG2-A16-CD81EGFP
Cond: human, HepG2-A16-CD81EGFP cells; read-out: INHIBITION
Catalogue of compounds with associated cytotoxicity at 10 µM
Respond numerically; units are % and should not be typed.

Illustrative cases are given below, each with its answer.
COc1ccc(CCC(=O)N2CCCCC2Cn2cccn2)cc1F (configuration not stated): -8.7
O=C(NCC1(N2CCOCC2)CCSC1)Nc1ccc(F)cc1 (configuration not stated): -10.2
COc1ccccc1Oc1ncccc1CNC(=O)C(O)C(F)(F)F (configuration not stated): -3.37
CCN(CC(=O)NCCc1nc(C)no1)Cc1ccc(Cl)cc1: 2.27
Cc1cccc2cc(CN3CCCN4CCC[C@H]4C3)c(=O)[nH]c12: 2.67

Answer with the recorded cytotoxicity at 10 µM for the compound listed here: CN(C)C1CCN(C(=O)C2SCCc3ccccc32)CC1 (configuration not stated) -4.67

Answer with the recorded cytotoxicity at 10 µM for the compound listed here: O=C(C1CCCO1)N1CCc2nnc(Cn3cccc3)n2CC1 (configuration not stated) 13.9

Answer with the recorded cytotoxicity at 10 µM for the compound listed here: COc1c(C)cnc(CNC(=O)CCOCc2ccccc2)c1C -4.31
